These entries and their values trace back to patent US20250026849A1.

Target: T1, BCMA (Homo sapiens (Human), UniProt Q02223 1-54, limits assumed)
T1 sequence: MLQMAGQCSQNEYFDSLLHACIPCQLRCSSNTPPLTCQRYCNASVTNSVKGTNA
Assay: ELISA, format not described
Set-up: unit not given here
Assign labels as follows, please: 1 for ELISA_avg below 10; -1 for ELISA_avg equal to or exceeding 10.

Worked examples follow.
D-domain SEQ ID NO: 229 (designed binder) MGSWIEFAMRLEAIENRLTALGGSEAELAIFESMIAHFEELLQNYKGKGNPEVEALIHEAFAIHKELWAYRHN :: -1
D-domain SEQ ID NO: 105 (designed binder) MGSWIEFSHRLEAIVDRLGALGGSEAELAAFEKEIAAFESELQAYKGKGNPEVEELRNTAAIIRVYLQAYRHN :: -1
D-domain SEQ ID NO: 246 (designed binder) MGSWYGFKYRLALIKWYLEALGGSEAELASFETYIADFEDLLQAYKGKGNPEVEALRKEAAAIRDELQAYRHN :: -1
D-domain SEQ ID NO: 131 (designed binder) MGSWVEFHGRLAAIYVRLFALGGSEAELAAFEKEIAAFESELQAYKGKGNPEVESLRYHAAMIRRNLQAYRHN :: 1
D-domain SEQ ID NO: 228 (designed binder) MGSWGEFEHRLDPSTCVWLALGGSEAELAAFEKEIAAFESELQAYKGKGNPEVEKLRRGAAVIRHWLQAYRHN :: 1

For D-domain SEQ ID NO: 255 (designed binder) MGSWHAFKYKLAMIKWYLEALGGSEAELAHFEEWIAEFEALLQEYKGKGNPEVEALRKEAAAIRDELQAYRHN , is the recorded ELISA_avg below the cut-off of 10?
-1

For D-domain SEQ ID NO: 89 (designed binder) MGSWTEFSQRLGAISERLYALGGSEAELAAFEKEIAAFESELQAYKGKGNPEVEELRYSAALIRFMLQAYRHN , is the recorded ELISA_avg below the cut-off of 10?
1

For D-domain SEQ ID NO: 207 (designed binder) MGSWVEFWNRLGAIYDRLEALGGSEAELAAFEKEIAAFESELQAYKGKGNPEVEKLRHTAAVIRLYLQAYRHN , is the recorded ELISA_avg below the cut-off of 10?
-1

For D-domain SEQ ID NO: 328 (designed binder) MGSWQSFKHALADIKINLEALGGSEAELAQFEYAIAVFEYRLQAYKGKGNPEVEALRKEAAAIRDELQAYRHN , is the recorded ELISA_avg below the cut-off of 10?
-1

For D-domain SEQ ID NO: 183 (designed binder) MGSWSEFWFRLGAIRNRLDALGGSEAELAAFEKEIAAFESELQAYKGKGNPEVEKLRDVAAHIRHWLQAYRHN , is the recorded ELISA_avg below the cut-off of 10?
-1
